Molecular target: DMPK (human)
Test: KINOMEscan competition binding
Settings: compound 10.0 µM
Please provide measured kinase still bound, per cent of control for the entries that follow.
Field format: number, assumed %, no unit text.

Task: Param item = CN1C(=O)c2ccccc2N(C)c2nc(NS(=O)(=O)c3ccc(N)cc3)ncc21 ; retrieve measured kinase still bound, per cent of control.
Output: 86

Task: Which measured kinase still bound, per cent of control value corresponds to N=C1NC(=O)/C(=C/c2c[nH]c(=O)c(-c3ccc(N4CCNCC4)nc3)c2)S1 ?
Output: 18

Task: Param item = CN1CCN(c2ccc(C(=O)Nc3ncc4c(n3)N(C)c3ccccc3C(=O)N4C)cc2)CC1 ; retrieve measured kinase still bound, per cent of control.
Output: 100

Task: Need kinase still bound, per cent of control of COc1cc(N2CCC(O)CC2)ccc1Nc1ncc2c(n1)N1CCc3cccc(c31)C(=O)N2C , thanks.
Output: 65

---

Biological target: AKT3 (human)
Assay: KINOMEscan competition binding
Details: compound 10.0 µM
Task for the reader: assign each of the following compounds its reported kinase still bound, per cent of control.
Please state the figure in %; there is no need to write the unit.

Task: Record request: kinase still bound, per cent of control value, item CN1C(=O)c2ccccc2N(C)c2nc(Nc3ccc(N4CCC(O)CC4)cc3)ncc21
Output: 100

Task: Fill in the blank: the reported kinase still bound, per cent of control of O=C1NC(=O)/C(=C/c2c[nH]c(=O)c(-c3ccc(N4CCNCC4)nc3)c2)S1 is ____.
Output: 98

Task: Give the measured kinase still bound, per cent of control of COc1cc(N2CCN(C)CC2)ccc1Nc1ncc2c(n1)N(C)c1sccc1C(=O)N2C .
Output: 100

Task: What does the data say about its kinase still bound, per cent of control? Entry: CN1CCN(c2ccc(C(=O)Nc3ncc4c(n3)N(C)c3ccccc3C(=O)N4C)cc2)CC1
Output: 90

Task: Give the measured kinase still bound, per cent of control of CN1C(=O)c2ccccc2N(C)c2nc(NS(=O)(=O)c3ccc(N)cc3)ncc21 .
Output: 88

---

Target: DYRK1B (human)
Experiment: KINOMEscan competition binding
Details: compound 10.0 µM
Measured Property: kinase still bound, per cent of control (%)
Express it in %; write the number only.

Task: Tell me reported kinase still bound, per cent of control for CS(=O)(=O)Nc1ccc(-c2ccc(/C=C3\SC(=N)NC3=O)o2)cc1 , tested with DYRK1B (human).
Output: 24

Task: What kinase still bound, per cent of control appears in the records for this molecule with DYRK1B (human)? N=C1NC(=O)/C(=C/c2ccc(-c3ccc(F)cc3)o2)S1
Output: 33

Task: API: value(readout= kinase still bound, per cent of control, system= DYRK1B (human), query= N=C1NC(=O)/C(=C/c2ccc(-c3ccc(F)cc3O)o2)S1 )
Output: 3.6

Task: Form field: kinase still bound, per cent of control recorded for N=C1NC(=O)/C(=C/c2ccc(-c3cncc4ccccc34)o2)S1 with DYRK1B (human) (enter value)
Output: 11

Task: Lab note: need kinase still bound, per cent of control for COc1cc(N2CCN(C)CC2)ccc1Nc1ncc2c(n1)N(C)c1sccc1C(=O)N2C on DYRK1B (human), anyone have it?
Output: 63

Task: Query kinase still bound, per cent of control on DYRK1B (human) for O=C1NC(=O)/C(=C/c2c[nH]c(=O)c(-c3ccc(N4CCNCC4)nc3)c2)S1
Output: 3

Task: Under DYRK1B (human): kinase still bound, per cent of control value of Nc1cccc(-c2cc(/C=C3\SC(=O)NC3=O)c[nH]c2=O)c1 ?
Output: 0.4

Task: Lab request: please report kinase still bound, per cent of control under test system DYRK1B (human) for COc1cc(N2CCN(C)CC2)ccc1Nc1ncc2c(n1)Nc1ccccc1NC2=O
Output: 79

Task: # value lookup — system DYRK1B (human), readout kinase still bound, per cent of control, item N=C1NC(=O)/C(=C/c2ccc(-c3ccccc3O)o2)S1
Output: 1.8

Task: Can you look up kinase still bound, per cent of control on DYRK1B (human) for N=C1NC(=O)/C(=C/c2ccc(-c3ccc4c(C(=O)Nc5ccc(N6CCNCC6)cc5)cccc4c3)o2)S1 ?
Output: 10

Task: Please state recorded kinase still bound, per cent of control (tested on DYRK1B (human)) of CN1C(=O)c2ccccc2N(C)c2nc(NS(=O)(=O)c3ccc(N)cc3)ncc21
Output: 100

Task: API: value(readout=kinase still bound, per cent of control, system=DYRK1B (human)) for record CS(=O)(=O)Nc1ccc(-c2cncc(/C=C3\SC(=N)NC3=O)c2)cc1
Output: 17

Task: I'm curious: which kinase still bound, per cent of control was measured for N=C1NC(=O)/C(=C/c2c[nH]c(=O)c(-c3ccc(N4CCNCC4)nc3)c2)S1 tested on DYRK1B (human)?
Output: 1

Task: What kinase still bound, per cent of control appears in the records for this molecule with DYRK1B (human)? N=C1NC(=O)/C(=C/c2c[nH]c(=O)c(-c3ccc4cc[nH]c4c3)c2)S1
Output: 8.6

Task: Quick check: kinase still bound, per cent of control on DYRK1B (human), item CSC1=NC(=O)/C(=C/c2c[nH]c(=O)c(-c3ccc(NS(C)(=O)=O)cc3)c2)S1 ?
Output: 15

Task: DYRK1B (human) / kinase still bound, per cent of control / CN1C(=O)[C@H]2CCC[C@H]2N(C2CCCC2)c2nc(Nc3ccc(C(N)=O)cc3)ncc21 : value?
Output: 2.8

Task: Provide the documented kinase still bound, per cent of control with DYRK1B (human) as the system for CC(=O)Nc1ccc(-c2ccc(/C=C3\SC(=N)NC3=O)o2)c(O)c1
Output: 23

Task: GET /values?readout=kinase still bound, per cent of control&system=DYRK1B (human)&item= COc1cc(N2CCN(C)CC2)ccc1Nc1ncc2c(n1)N(C)c1ccccc1N(C)C2=O
Output: 92

Task: // fetch DYRK1B (human) kinase still bound, per cent of control for COc1cc(N2CCC(O)CC2)ccc1Nc1ncc2c(n1)N1CCc3cccc(c31)C(=O)N2C
Output: 54

Task: Record CN1CCN(c2ccc(C(=O)Nc3ncc4c(n3)N(C)c3ccccc3C(=O)N4C)cc2)CC1 : what is its kinase still bound, per cent of control with DYRK1B (human)?
Output: 100
